Conditions: buffer; pH 7.4; 200.0 µM
This listing pairs compounds with measured solubility kinetic.
Just the number in µg/mL, nothing appended.

# count of solved cases: 4
{"COMPOUND": "N#Cc1ccc(Cn2cc(C=O)c3ccccc32)cc1", "MEASURED RESULT": 4}
{"COMPOUND": "c1ccc(-c2nccc3ccccc23)cc1", "MEASURED RESULT": 7.3}
{"COMPOUND": "CCc1ccc(OCC2Cn3c(nc4c3c(=O)[nH]c(=O)n4C)O2)cc1 (configuration not stated)", "MEASURED RESULT": 3.8}
{"COMPOUND": "Cc1cc(C)c2nc(Cl)c(Cl)nc2c1", "MEASURED RESULT": 2.7}

Next compound, solubility kinetic to be filled in.
The compound `Nc1cc(Cl)ccc1C(=O)OCC(=O)N1CCCCCC1` showed solubility kinetic equal to 5.4

* * *

Settings: buffer; pH 7.4; 200.0 µM
This listing pairs molecules with measured solubility kinetic.

{"MOLECULE": "CCOC(=O)c1c(C)oc2c1c(C=NCC1CCCO1)c(O)c1ccccc12 (configuration not stated)", "solubility kinetic": "< 0.8 µg/mL"}
{"MOLECULE": "COc1ccc(CNC(=O)CN2C(=O)NC3(CCCCCC3)C2=O)cc1", "solubility kinetic": "> 53.9 µg/mL"}
{"MOLECULE": "Cc1ccc(SCC(=O)N2CCC(C(N)=O)CC2)cc1", "solubility kinetic": "> 43.9 µg/mL"}
{"MOLECULE": "CN1CCCN(C(=O)CNC(=O)c2ccccc2Br)CC1", "solubility kinetic": "> 53.1 µg/mL"}
{"MOLECULE": "O=C(CN1C(=O)NC2(CCCCC2)C1=O)N1CCOCC1", "solubility kinetic": "> 44.3 µg/mL"}

The molecule `Cc1ccc(NC(=S)N2CCCCCC2)c(C)c1` showed solubility kinetic equal to > 39.4 µg/mL

The molecule O=C(NC1CCSc2ccccc21)c1ccc(C(F)(F)F)cc1 (configuration not stated) showed solubility kinetic equal to < 0.7 µg/mL

The molecule CC(=O)NC(CC(=O)N(C)Cc1cccc(Cl)c1Cl)c1ccccc1 (configuration not stated) showed solubility kinetic equal to > 56.9 µg/mL

* * *

Conditions: buffer; pH 7.4; 200.0 µM
PROPERTY: solubility kinetic (µg/mL)
Just the number in µg/mL, nothing appended.

# count of solved cases: 4
{"MOLECULE": "Cc1cnc(NC(=O)c2ccc(OCC3CCCO3)cc2)s1 (stereo not drawn)", "solubility kinetic (µg/mL)": 7.8}
{"MOLECULE": "COc1cccc(C2N(c3ccccc3)CCN2c2ccccc2)c1OC", "solubility kinetic (µg/mL)": 1}
{"MOLECULE": "CN1C(=O)S/C(=C/c2ccc(OCc3cccc(C(=O)O)c3)cc2)C1=O", "solubility kinetic (µg/mL)": 10.6}
{"MOLECULE": "COc1ccc(CN2CCC(Cc3ccccc3)CC2)c(C)c1C", "solubility kinetic (µg/mL)": 17}

Next molecule, solubility kinetic to be filled in.
The molecule `CCC(=O)Nc1cc2c3c(c1)CCN3C(=O)CC2` showed solubility kinetic equal to 35.3

* * *

Details: buffer; pH 7.4; 200.0 µM
PROPERTY: solubility kinetic (µg/mL)
Just the number in µg/mL, nothing appended.

# count of solved cases: 7
{"COMPOUND": "CC1(C)C(=O)Nc2ccccc2N1C(=O)COC(=O)c1ccc([N+](=O)[O-])o1", "solubility kinetic, µg/mL": 12.1}
{"COMPOUND": "Cc1cccc(N2CCN(Cc3nc(C4CC4)no3)CC2)n1", "solubility kinetic, µg/mL": 37.8}
{"COMPOUND": "Cc1cccc(C)c1NC(=O)CC(C)c1ccccc1 (centres undefined)", "solubility kinetic, µg/mL": 12.8}
{"COMPOUND": "CC1CCN(C(=O)CCNC(=O)c2ccccc2Cl)CC1", "solubility kinetic, µg/mL": 41.1}
{"COMPOUND": "N#Cc1ccc(CSc2ccccn2)c(Cl)c1", "solubility kinetic, µg/mL": 3.4}
{"COMPOUND": "Cc1csc(C(=O)O)c1NC(=O)c1c(Cl)cccc1Cl", "solubility kinetic, µg/mL": 40.7}
{"COMPOUND": "Cc1ccc(CNC(=O)CSCc2ccccc2F)cc1", "solubility kinetic, µg/mL": 43.1}

The compound `O=C(c1cccc(Cl)c1)N1CCC(c2nc3ccccc3[nH]2)CC1` showed solubility kinetic equal to 42.6

* * *

This listing pairs molecules with measured solubility kinetic.
Settings: buffer; pH 7.4; 200.0 µM

{"MOLECULE": "Cn1c(N)c(C(=O)CSc2nnc3n2CCCCC3)c(=O)n(C)c1=O", "solubility kinetic": "> 54.7 µg/mL"}
{"MOLECULE": "Cc1c(NS(=O)(=O)c2cc(C(=O)N(C)Cc3ccccc3)ccc2Cl)c(=O)n(-c2ccccc2)n1C", "solubility kinetic": "> 78.8 µg/mL"}
{"MOLECULE": "O=C(C1CC(=O)N(c2ccccc2)C1)N1CCCCCC1 (configuration not stated)", "solubility kinetic": "> 43 µg/mL"}

The molecule `Fc1ccc(CN2CCCN(C(=S)Nc3ccc(F)cc3)CC2)cc1` showed solubility kinetic equal to > 54.2 µg/mL

The molecule OC(c1nc2ccc(F)cc2[nH]1)C(O)c1nc2ccc(F)cc2[nH]1 (configuration not stated) showed solubility kinetic equal to > 49.5 µg/mL

The molecule `CCS(=O)(=O)N1CCC(C(=O)Oc2ccccc2OC)CC1` showed solubility kinetic equal to > 49.1 µg/mL

The molecule `O=C1NCCN1CCNS(=O)(=O)c1ccc(F)c(Cl)c1` showed solubility kinetic equal to > 48.3 µg/mL

The molecule `O=C(Nc1cccc(C(F)(F)F)c1)c1cc[n+]([O-])cc1` showed solubility kinetic equal to > 42.3 µg/mL

The molecule `CSc1ccccc1C(=O)Nc1ccc2c(c1)OCO2` showed solubility kinetic equal to > 43.1 µg/mL

The molecule `CCCc1ccc(-c2ccc(-c3noc(-c4ccncc4)n3)cc2)nc1` showed solubility kinetic equal to < 0.2 µg/mL

The molecule `Cc1ccc(S(=O)(=O)Nc2ncnc3ccccc23)cc1` showed solubility kinetic equal to > 44.9 µg/mL

The molecule `Cc1cccc(C)c1NC(=O)c1c[nH]c2ccccc12` showed solubility kinetic equal to > 39.6 µg/mL

* * *

Settings: buffer; pH 7.4; 200.0 µM
PROPERTY: log10 solubility kinetic (log10 of the value in µg/mL)
Lab note - solubility kinetic converted to log10 from values in µg/mL.

# count of solved cases: 6
{"COMPOUND": "COc1cc(C)c(C)cc1S(=O)(=O)N1CCCc2ccccc21", "log10 solubility kinetic": 0.69}
{"COMPOUND": "O=C(NC1=NCCS1)c1cc(Cl)ccc1Cl", "log10 solubility kinetic": 1.57}
{"COMPOUND": "O=C(NCc1cccc(Cl)c1)c1ccc2ccccc2n1", "log10 solubility kinetic": 0.56}
{"COMPOUND": "O=c1nc(-c2ccccc2Cl)c2cc(F)ccc2[nH]1", "log10 solubility kinetic": 1.59}
{"COMPOUND": "O=C(COC(=O)c1ccc2c(c1)OCO2)NC1CCCCC1", "log10 solubility kinetic": 1.26}
{"COMPOUND": "Cc1ccc(S(=O)(=O)N(C)C)cc1NC(=O)CCc1ccccc1", "log10 solubility kinetic": 1.70}

The compound Cl.OC(CNCc1ccc(-c2ccccc2)cc1)c1ccccc1 (configuration not stated) showed log10 solubility kinetic equal to 0.20

The compound `Cc1cc(NC(=O)Cc2ccccc2C)no1` showed log10 solubility kinetic equal to 1.51

The compound `COc1ccc2[nH]cc(CCNC(=O)Cc3c(F)cccc3Cl)c2c1` showed log10 solubility kinetic equal to 0.59

The compound `Cc1cnc(NC(=O)Cc2ccc(C)c(C)c2)s1` showed log10 solubility kinetic equal to 0.30

The compound `Cc1[nH]c2ccccc2c(=O)c1C(=O)/C=C/c1ccccc1` showed log10 solubility kinetic equal to 1.55

The compound `CN(c1ccc(F)cc1)S(=O)(=O)c1ccc(Cl)c(C(=O)NCc2ccco2)c1` showed log10 solubility kinetic equal to 1.54

* * *

Settings: buffer; pH 7.4; 200.0 µM
This listing pairs molecules with measured solubility kinetic.

{"STRUCTURE STRING": "CCN1CCN(CC(=O)Nc2cc(S(=O)(=O)N(CC)c3ccccc3)ccc2Cl)CC1.Cl", "solubility kinetic": "> 75.2 µg/mL"}
{"STRUCTURE STRING": "O=C(CCCN1C(=O)/C(=C\\c2ccccc2)SC1=S)Nc1ccccc1O", "solubility kinetic": "< 0.4 µg/mL"}

The molecule `CCNc1nc(NC(C)C)nc(N(C)C#N)n1` showed solubility kinetic equal to > 35.3 µg/mL

* * *

Conditions: buffer; pH 7.4; 200.0 µM
This listing pairs compounds with measured log10(solubility kinetic).
Lab note - solubility kinetic converted to log10 from values in µg/mL.

# count of solved cases: 6
{"COMPOUND": "Cc1cccc(Nc2nc(-c3ccc(O)cc3O)cs2)n1", "log10(solubility kinetic)": 0.67}
{"COMPOUND": "Fc1ccc(-c2csc(Nc3ccccn3)n2)cc1", "log10(solubility kinetic)": -0.22}
{"COMPOUND": "COc1ccc(CCNS(=O)(=O)c2ccc3c(c2)CCCC3)cc1OC", "log10(solubility kinetic)": 1.45}
{"COMPOUND": "CC(NC(=O)c1ccc(Cl)cc1)C1CC2CCC1C2 (stereo not drawn)", "log10(solubility kinetic)": 0.04}
{"COMPOUND": "CC(C)Nc1nc(N)c(C(=O)C23CC4CC(CC(C4)C2)C3)s1", "log10(solubility kinetic)": -0.52}
{"COMPOUND": "NCC(=O)CCC(=O)O", "log10(solubility kinetic)": 1.27}

The compound `O=C(CC12CC3CC(CC(C3)C1)C2)NC1CC1` showed log10(solubility kinetic) equal to 1.48

The compound `O=C(Nc1nonc1-c1ccc(Cl)cc1)c1ccccc1` showed log10(solubility kinetic) equal to -0.15

The compound `O=C(Nc1cccc(-c2cnc3ccccc3n2)c1)c1ccncc1` showed log10(solubility kinetic) equal to -0.22

The compound `CN(C(=S)Nc1cccnc1)c1ccc(O)cc1` showed log10(solubility kinetic) equal to 1.46

The compound CCOC(=O)c1c(C)[nH]c(C(=O)NCC(c2ccco2)N2CCCCC2)c1C (stereo not drawn) showed log10(solubility kinetic) equal to 0.30

The compound `COc1ccc(NC(=O)CCCc2ccccc2)cc1OC` showed log10(solubility kinetic) equal to 1.47
